Assay: modulators of S6 phosphorylation in cells, primary screen, cell-based, A549, cytoblot, luminescence, serum-stimulated (AID 1158);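 further: serum-stimulated A549 lung adenocarcinoma cells; signal is phosphorylated S6 detected by cytoblot immunostaining with HRP secondary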
Conditions: A549 phospho-S6 cytoblot, 5 h, higher = more signal
result.type: z-score

{"molecule": "O=C1O[C@@H](c2ccccc2)[C@@H](c2ccccc2)N2[C@@H](c3ccccc3OCCO)[C@]3(C(=O)Nc4ccc(C#CC5=CCCCC5)cc43)[C@@H](C(=O)NC[C@H](O)c3ccccc3)[C@H]12", "reported.result": 0.581}
{"molecule": "CON(C)C(=O)C=C1C[C@@H](c2cccc(Cl)c2)O[C@@H](c2cccc(Cl)c2)O1", "reported.result": 0.178}
{"molecule": "COC(=O)[C@@]1(Cc2ccc(F)cc2)[C@H]2c3cc(C(=O)N4CCCC4)n(CCc4c[nH]c5ccc(OC)cc45)c3C[C@H]2CN1C(=O)c1ccccc1", "reported.result": 1.03}
{"molecule": "NCCCCCCNC(=O)[C@H]1C[C@H]2C(=O)N[C@@H](Cc3ccccc3)C(=O)N2[C@H]1c1ccc(O)cc1", "reported.result": 0.316}
{"molecule": "COc1cc(CO)cc(I)c1O[C@H]1C=C(C(=O)NCCO)C[C@@H](N(Cc2ccc(F)cc2)C(=O)C2CCCO2)[C@@H]1O (stereo partly drawn)", "reported.result": -0.0981}
{"molecule": "COc1cc(CO)cc(I)c1O[C@H]1C=C(C(=O)NCCO)C[C@@H](NCc2ccccc2F)[C@@H]1O", "reported.result": 0.51}
{"molecule": "Cc1ccc(F)cc1S(=O)(=O)N[C@@H]1CCN(Cc2ccc(Oc3ccccc3)cc2)C1", "reported.result": -0.766}
{"molecule": "NCCCCCNC(=O)[C@@H]1C[C@@H]2C(=O)N[C@@H](CCCCN)C(=O)N2[C@@H]1c1cccc(OCCO)c1", "reported.result": -0.157}
{"molecule": "O=c1cccc(-c2cccc(Cl)c2)o1", "reported.result": -0.717}
{"molecule": "COC(=O)[C@]1(CCS(=O)(=O)c2ccccc2)N=C(c2ccc(OCCCO)cc2)O[C@@H]1c1ccccc1CN=[N+]=[N-]", "reported.result": -0.505}
{"molecule": "COCCOC(=O)N1C(=O)[C@@]2(c3cc(C#Cc4ccc(OC)cc4)ccc31)[C@H](C(=O)N1CCCCCCC1)[C@H]1C(=O)O[C@H](c3ccccc3)[C@H](c3ccccc3)N1[C@@H]2c1ccc(O)cc1", "reported.result": 1.27}
{"molecule": "CC(CO)N1C(=O)[C@@H]2C3C(=O)OCCC/C=C\\[C@H]3OC23C=CCN(Cn2nnc4ccccc42)C(=O)[C@@H]13 (stereo partly drawn)", "reported.result": 0.282}
{"molecule": "Cc1c(NC(=O)/C(C#N)=C/C=C/c2ccc(N(C)C)cc2)c(=O)n(-c2ccccc2)n1C", "reported.result": -0.466}
{"molecule": "C=CC[C@@]12N=C(c3ccc(OCCCO)cc3)O[C@@H]1c1ccccc1N(CCS(=O)(=O)c1ccccc1)C2=O", "reported.result": 0.766}
{"molecule": "C=C[C@@H](C)[C@H](OC(=O)Nc1ccc(SC)cc1)c1ccc(OCCO)cc1", "reported.result": 2.17}
{"molecule": "[N-]=[N+]=Nc1ccccc1C[C@@]1(C(=O)O)N=C(c2ccc(OCCCO)cc2)O[C@@H]1c1ccccc1", "reported.result": -0.405}
{"molecule": "C=CC[C@@]1(C(=O)N2CCCCC2)N=C(c2ccc(OCCCO)cc2)O[C@@H]1c1ccccc1", "reported.result": -0.499}
{"molecule": "COC(=O)[C@@]1(Cc2ccc(F)cc2)[C@H]2c3cc(C(=O)N4CCCC4)n(CCF)c3C[C@H]2CN1C(=O)c1ccccc1", "reported.result": 0.563}
{"molecule": "COc1ccccc1CN1C(=O)c2ccccc2[C@](Cc2ccccc2I)(C(=O)NC(C)C)[C@@H]1c1ccc(CO)cc1", "reported.result": 0.0569}
{"molecule": "COCCCNC(=O)[C@]1(CCC(=O)OC(C)(C)C)N=C(c2ccc(OCCCO)cc2)O[C@@H]1c1ccccc1", "reported.result": -0.507}
{"molecule": "COc1ccc([Si](C)(C)[C@H]2[C@H](CC(=O)N3Cc4ccccc4C[C@H]3CO)O[C@@]3(C(=O)N(Cc4cccc(N5CCCCC5=O)c4)c4ccccc43)[C@@H]2C)cc1", "reported.result": 1.83}
{"molecule": "C=C(COC)/C(=C/C[C@@H](OC(=O)c1ccncc1)c1cccc(OCCO)c1)c1cnc2ccccc2c1", "reported.result": 0.507}
{"molecule": "COC(=O)[C@@]1(Cc2ccc(OC)cc2)[C@H]2c3cc(C(=O)N(C)C)n(Cc4nc5ccccc5[nH]4)c3C[C@H]2CN1C(=O)c1ccccc1", "reported.result": 0.123}

====

Form field: z-score (one value per entry).
Target: Luciferin 4-monooxygenase (Photinus pyralis)
Test: firefly luciferase enzyme inhibitors, primary screen, biochemical, luminescence, purified enzyme, 2006 set (AID 1141);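 further: cell-free assay with purified firefly luciferase at 100 ng per well in PBS; test concentration not given here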
Details: SteadyGlo luminescence, 30 min, higher = more signal, called active from +8 up or from −8 down
result.type: z-score

{"compound": "O=C1c2ccccc2[C@](Cc2ccccc2I)(C(=O)NCCN2CCOCC2)[C@H](c2ccc(CO)cc2)N1Cc1ccccc1", "result.type": "z-score", "reported.result": -0.0588}
{"compound": "CN(C)CCCNC(=O)[C@@]1(c2ccc([N+](=O)[O-])cc2)CC(=O)N(CC23CC4CC(CC(C4)C2)C3)[C@@H]1c1ccc(CO)cc1", "result.type": "z-score", "reported.result": 0.292}
{"compound": "CO[C@H]1O[C@H](CO)[C@@H](OC(=O)Nc2ccc(Oc3ccccc3)cc2)[C@H](OC(=O)Nc2ccccc2-c2ccccc2)[C@@H]1OC(=O)Nc1ccccc1-c1ccccc1", "result.type": "z-score", "reported.result": -0.69}
{"compound": "COc1ccc([Si](C)(C)[C@H]2[C@H](CCn3cc([C@H](O)c4ccccc4)nn3)O[C@@]3(C(=O)N(Cc4ccc(N5CCOC5=O)cc4)c4ccccc43)[C@@H]2C)cc1", "result.type": "z-score", "reported.result": -0.278}
{"compound": "COc1ccc([Si](C)(C)[C@@H]2[C@@H](CC(=O)N3CCC[C@H]3CO)O[C@]3(C(=O)N(Cc4ccc(N5C(=O)c6cccc7cccc5c67)cc4)c4ccccc43)[C@H]2C)cc1", "result.type": "z-score", "reported.result": 0.508}
{"compound": "COC(=O)C1(Cc2ccccc2)C=C2C(=C(c3ccccc3)C(=O)C2C)CN1 (stereo unspecified)", "result.type": "z-score", "reported.result": 1.98}
{"compound": "NC(N)=NCc1cn(CCc2c[nH]c3ccccc23)nn1", "result.type": "z-score", "reported.result": -0.813}
{"compound": "O=C1O[C@@H](c2ccccc2)[C@@H](c2ccccc2)N2[C@@H](c3ccc(O)cc3)[C@]3(C(=O)Nc4ccc(C#CCCO)cc43)[C@@H](C(=O)Nc3nc4ccccc4s3)[C@H]12", "result.type": "z-score", "reported.result": -0.155}
{"compound": "Cc1c(NC(=O)/C(C#N)=C/C=C/c2ccc(N(C)C)cc2)c(=O)n(-c2ccccc2)n1C", "result.type": "z-score", "reported.result": -3.99}
{"compound": "C=C(COC)/C(=C/C[C@@H](OC(=O)c1ccncc1)c1ccc(OCCO)cc1)c1cnc2ccccc2c1", "result.type": "z-score", "reported.result": -2.4}
{"compound": "CC(C)(C)N1CC=CC23O[C@@H]4C=CCOC(=O)[C@@H]4[C@H]2C(=O)N(CCCO)[C@@H]3C1=O (stereo partly specified)", "result.type": "z-score", "reported.result": -0.11}
{"compound": "CCOC(=O)[C@H]1C/C=C/C[C@H](C(=O)OCC)C(=O)O[C@H]2[C@@H](OC)O[C@H](CO)[C@@H](OC(=O)Nc3ccc(OC)cc3)[C@@H]2OC1=O", "result.type": "z-score", "reported.result": -2.06}
{"compound": "CN1C(=O)C2C=CC(C(O)C3CCCCC3)N(N3CCCCC3)C2C1=O (stereo unspecified)", "result.type": "z-score", "reported.result": 0.49}
{"compound": "O=C(CCCCCCC(=O)Nc1ccccc1)N/N=C/c1ccccc1", "result.type": "z-score", "reported.result": -0.83}
{"compound": "COC(=O)c1c(CC[C@@H](CO)NC(=O)N[C@H](Cn2cc(-c3ccccc3C)nn2)C(C)C)oc(C(C)=O)c1C(=O)OC", "result.type": "z-score", "reported.result": 0.379}
{"compound": "COCCOC(=O)N1C(=O)[C@@]2(c3cc(C#CC4(O)CCCCCC4)ccc31)[C@H](c1ccccc1OCCO)N1[C@H](c3ccccc3)[C@H](c3ccccc3)OC(=O)[C@H]1[C@@H]2C(N)=O", "result.type": "z-score", "reported.result": -0.927}
{"compound": "COc1ccc(C(O)C2C=CC3C(=O)N(Cc4ccccc4)C(=O)C3N2n2cnnc2)c2ccccc12 (stereo unspecified)", "result.type": "z-score", "reported.result": 1.01}
{"compound": "CC1CC/C=C\\[C@H]2OC34C=CCN(CCN5CCOCC5)C(=O)[C@H]3N(CCO)C(=O)[C@@H]4C2C(=O)O1 (stereo partly specified)", "result.type": "z-score", "reported.result": 0.749}
{"compound": "COc1cc(CO)cc(I)c1O[C@H]1C=C(C(=O)NCCO)C[C@@H](N(Cc2ccc(F)cc2)C(=O)C2CCCO2)[C@@H]1O (stereo partly specified)", "result.type": "z-score", "reported.result": -0.951}
{"compound": "CC(C)N1CC=CC23O[C@@H]4C=CCOC(=O)[C@@H]4[C@H]2C(=O)N(C(C)CO)[C@@H]3C1=O (stereo partly specified)", "result.type": "z-score", "reported.result": 0.169}
{"compound": "COC(=O)[C@@]1(Cc2ccccc2)[C@H]2c3cc(C(=O)N4CCCC4)n(Cc4cc(F)cc5c4OCOC5)c3C[C@H]2CN1C(=O)c1ccccc1", "result.type": "z-score", "reported.result": 0.827}
